Numbers sourced from patent US10988440B2.

Biological target: COMT enzyme (Homo sapiens)
Construct: COMT (μM); other: at 200 nM; other: at 50 nM; The reaction system contains 1U COMT enzyme, test article, 4 μM Esculetin, 0.6 mM AdoMet, 50 mM K3PO4, and 10 mM MgCl2
Sequence (P21964 1-271): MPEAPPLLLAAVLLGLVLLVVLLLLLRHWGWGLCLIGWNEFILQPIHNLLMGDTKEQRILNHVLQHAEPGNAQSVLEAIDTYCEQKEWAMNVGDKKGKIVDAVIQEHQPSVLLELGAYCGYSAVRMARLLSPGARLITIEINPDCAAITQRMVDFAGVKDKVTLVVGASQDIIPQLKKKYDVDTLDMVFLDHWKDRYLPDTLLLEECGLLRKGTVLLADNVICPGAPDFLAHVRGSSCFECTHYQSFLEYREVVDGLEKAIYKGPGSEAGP
Experiment: COMT inhibition assay (reaction kinetic model, esculetin fluorescence)
Assay type: biochemical
Details: read-out: COMT inhibition at 50 nM
Outcome: class 1 for inhibition at 0.05 µM of at least 30%; class 0 for anything lower.

Prompt: Is the recorded value of inhibition at 0.05 µM equal to or greater than 30% for this compound? N#C/C(C(=O)N1CCCCC1)=C(/O)c1cc(O)c(O)c([N+](=O)[O-])c1 [Compound 661]
Response: class 0

Prompt: Is the recorded value of inhibition at 0.05 µM equal to or greater than 30% for this compound? N#C/C(=C(/O)c1cc(O)c(O)c([N+](=O)[O-])c1)c1ccncn1 [Compound 525]
Response: class 1

Prompt: Is the recorded value of inhibition at 0.05 µM equal to or greater than 30% for this compound? N#CC(=Cc1cc(O)c(O)c([N+](=O)[O-])c1)c1ccccn1 (stereo in doubt) [Compound 315]
Response: class 0

Prompt: Is the recorded value of inhibition at 0.05 µM equal to or greater than 30% for this compound? N#C/C(=C\c1cc(O)c(O)c([N+](=O)[O-])c1)C(=O)N1CCCCC1 [Compound 371]
Response: class 1

Prompt: Is the recorded value of inhibition at 0.05 µM equal to or greater than 30% for this compound? N#C/C(=C(/O)c1cc(O)c(O)c([N+](=O)[O-])c1)c1cnc(C(=O)O)cn1 [Compound 697]
Response: class 0

Prompt: Is the recorded value of inhibition at 0.05 µM equal to or greater than 30% for this compound? N#C/C(C(=O)N1CCCCC1)=C(/N)c1cc(O)c(O)c([N+](=O)[O-])c1 [Compound 661N]
Response: class 1

Prompt: Is the recorded value of inhibition at 0.05 µM equal to or greater than 30% for this compound? N#C/C(=C(/O)c1cc(O)c(O)c([N+](=O)[O-])c1)c1ccccn1 [Compound 351]
Response: class 1

Prompt: Is the recorded value of inhibition at 0.05 µM equal to or greater than 30% for this compound? N#C/C(=C\c1cc(O)c(O)c([N+](=O)[O-])c1)c1nccs1 [Compound 390]
Response: class 0

---

test: Rat liver microsome stability assay; format: in vitro ADME; conditions: liver microsomes, pH 7.4; rat liver microsome 1 mg/ml, test compound 2 μM, NADPH 1 mM, 37° C.; read-out: Rat Liver Microsome T½
Outcome: 1 (yes) for half-life at 1 h, 2 µM of at least 1 h; 0 (no) for anything lower.

Example entries begin here.
{"compound": "N#C/C(C(=O)N1CCCCC1)=C(/O)c1cc(O)c(O)c([N+](=O)[O-])c1", "category label": "1 (yes)"}
{"compound": "CCN(CC)C(=O)/C(C#N)=C(\\N)c1cc(O)c(O)c([N+](=O)[O-])c1 [Compound 347N]", "category label": "1 (yes)"}
{"compound": "N#C/C(=C(/O)c1cc(O)c(O)c([N+](=O)[O-])c1)c1nccs1", "category label": "1 (yes)"}
{"compound": "N#C/C(=C\\c1cc(O)c(O)c([N+](=O)[O-])c1)C(=O)N1CCC1", "category label": "0 (no)"}
{"compound": "N#C/C(=C\\c1cc(O)c(O)c([N+](=O)[O-])c1)c1cnccn1", "category label": "0 (no)"}
{"compound": "CCN(CC)C(=O)/C(C#N)=C(\\O)c1cc(O)c(O)c([N+](=O)[O-])c1", "category label": "1 (yes)"}
{"compound": "N#C/C(C(=O)N1CCCCC1)=C(/N)c1cc(O)c(O)c([N+](=O)[O-])c1 [Compound 661N]", "category label": "1 (yes)"}
{"compound": "N#CC(=Cc1cc(O)c(O)c([N+](=O)[O-])c1)c1ccccn1 (stereo in doubt)", "category label": "0 (no)"}
{"compound": "N#C/C(=C\\c1cc(O)c(O)c([N+](=O)[O-])c1)c1nccs1", "category label": "0 (no)"}
{"compound": "N#C/C(=C(/O)c1cc(O)c(O)c([N+](=O)[O-])c1)c1ccccn1", "category label": "1 (yes)"}

Prompt: Is the recorded value of half-life at 1 h, 2 µM equal to or greater than 1 h for this compound? N#C/C(=C(/O)c1cc(O)c(O)c([N+](=O)[O-])c1)c1cnccn1
Response: 1 (yes)
